Counter-ions that a name gives are not always drawn.
Kindly state melting point for each of the entries shown.

Completed entries (count: 7):
molecule	measured
O=C(CCl)NCCn1c(-c2ccc[nH]2)nc2c(C(F)(F)F)nc3ccccc3c21	234 to 235 °C
FC(F)(F)c1nc2cc(Cl)ccc2c2c1nc(-c1ncc[nH]1)n2CCC1CCNCC1 (as salt: trifluoroacetate)	290 to 295 °C (dec.)
O=C(CCl)NCCn1c(-c2ccccc2)nc2c(C(F)(F)F)nc3ccccc3c21	230.5 to 231.5 °C
Cc1cccc2c1nc(C(F)(F)F)c1nc(-c3ccccc3)n(CCC3CCNCC3)c12 (as salt: trifluoroacetate)	218 to 219 °C (dec.)
NCCn1c(-c2ccc[nH]2)nc2c(C(F)(F)F)nc3ccccc3c21	195.5 to 196.5 °C
FC(F)(F)c1nc2cc(Cl)ccc2c2c1nc(-c1nccs1)n2CCC1CCNCC1	232.5 to 234 °C (dec.)
NCC(=O)NCCn1c(-c2ccc[nH]2)nc2c(C(F)(F)F)nc3ccccc3c21.O=C(O)/C=C/C(=O)O	176 to 177 °C (dec.)

For the next question, use this molecule.
Give its melting point value. Item: Fc1ccc2c(c1)nc(C(F)(F)F)c1nc(-c3ccccc3)n(CCC3CCNCC3)c12 (as salt: trifluoroacetate)
240 to 242 °C (dec.)
